# target_system: dDATmfc (Drosophila melanogaster, UniProt Q7K4Y6, DEL162-202/DEL602-606/INS607VPRG/L415A/V74A)
parameter_measured: Ki (µM)
Numeric only. Scale: µM

Ki for COC(=O)[C@H]1[C@@H](OC(=O)c2ccccc2)C[C@@H]2CC[C@H]1N2C ?
33

* * *

# target_system: dDATmfc sub^B (Drosophila melanogaster, UniProt Q7K4Y6, D121G/DEL162-202/DEL602-606/INS607VPRG/L415A/S426M/V74A)
parameter_measured: pKi
pKi field: float, defined as -log10 of concentration (mol/L).

pKi for NCCc1ccc(Cl)c(Cl)c1 [DCP, 3,4-dichlorophenethylamine] ?
6.57

This collection of values is drawn from paper PMC4469479.
